measurement-type: melting point (°C)

# count of solved cases: 2
1) Cc1ccccc1C(=O)O: 108
2) O=C5\C=C4/C(C3CCC2(C(CCC2OC(=O)Cc1ccccc1)C3CC4)C)(C)CC5 (stereo not drawn) [testosterone phenylacetate]: 129

P = O=c1cc(-c2ccccc2)oc2cccc(O)c12 [5-hydroxyflavone]
Q = CC=C(C)C(C)C [3,4-dimethyl-cis-2-pentene]
Req: Which value of melting point is greater, the one for P or the one for Q ? To answer, give the label that identifies your chosen option.
Resp: P

----------
measurement-type: melting point (°C)

# count of solved cases: 5
1) c1ccc2c(c1)[nH]c1ccccc12: 247
2) Clc1cc(Cl)c(-c2ccc(Cl)c(Cl)c2Cl)cc1Cl: 79
3) O=c1cccccc1O: 53
4) COC(=O)c1ccccc1S(=O)(=O)Cl [methyl 2-(chlorosulfonyl)benzoate]: 62
5) N#CCc1ccccc1Cl [2-chlorobenzyl_cyanide]: 24

A = Oc1ccc(O)cc1 [hydroquinone]
B = OB(O)c1ccccc1C(F)(F)F
C = CN1CCCN(C)C1=O [1,3-dimethyl-3,4,5,6-tetrahydro-2(1h)-pyrimidinone]
D = CC(=O)c1cccc(N=C=S)c1 [3-acetylphenyl isothiocyanate]
E = Cc1cccc(O)c1 [M-Cresol]
Req: Arrange the 5 compounds by rising melting point, starting with the smallest. I'd appreciate it if you listed the labels in the requested order.
Resp: C, E, D, B, A

A = Cc1c([N+](=O)[O-])cc[n+]([O-])c1C [2,3-dimethyl-4-nitropyridine n-oxide]
B = CC(CCC(=O)O)C1CCC2C3C(O)CC4CC(O)CCC4(C)C3CC(=O)C12C (centres undefined) [3,7-dihydroxy-12-oxocholan-24-oic acid]
C = Cc1c(C)c(C)c(C=O)c(C)c1C
D = CCCCCCCCCC(=O)O [Decanoic acid]
Req: Reorder: melting point, max to min. I'd appreciate it if you listed the labels in the requested order.
Resp: B, C, A, D
(B: 221 °C, C: 133 °C, A: 93 °C, D: 31 °C)

1 = O=[N+]([O-])c1ccc2c(c1)OCCOCCOCCOCCO2
2 = C(=NNc1ccccc1)C(=NNc1ccccc1)c1cccc(C(C=NNc2ccccc2)=NNc2ccccc2)c1
3 = C[C@]12CC[C@@H]3c4ccc(O)cc4CC[C@H]3[C@@H]1CCC2=O
Req: Arrange the 3 compounds by rising melting point, starting with the smallest. I'd appreciate it if you listed the labels in the requested order.
Resp: 1, 2, 3

1 = CCOC(=O)c1ccc([N+](=O)[O-])o1 [ethyl 5-nitro-2-furoate]
2 = COc1cc(Cc2cnc(N)nc2N)cc(OC)c1OC [trimethoprim]
Req: Identify the entry with the smaller melting point: 1 or 2 . To answer, give the label that identifies your chosen option.
Resp: 1

1 = NC(=O)N[C@@H]1O[C@H](CO)[C@@H](O)[C@H](O)[C@H]1O
2 = COc1ccc(C#N)cc1Br
3 = COc1cc(Br)cc(OC)c1OC
Req: Arrange the 3 compounds by rising melting point, starting with the smallest. I'd appreciate it if you listed the labels in the requested order.
Resp: 3, 2, 1

1 = Cc1c(N)c(=O)n(-c2ccccc2)n1C [4-aminoantipyrine]
2 = O=C\1\C=C/[C@]4(/C(=C/1)CC[C@@H]2[C@@H]4[C@@H](O)C[C@@]3([C@@](O)(C(=O)CO)CC[C@@H]23)C)C
3 = FC(F)(F)c1cc(-c2cccs2)nc2cc(-c3cccs3)nn12
Req: Reorder: melting point, max to min. I'd appreciate it if you listed the labels in the requested order.
Resp: 2, 3, 1
